experiment-summary: antivirals against arbovirus infection, primary screen, cell-based, full library, 10K replicate subset (AID 1251)
test-conditions: arbovirus infection cell-based antiviral screen, at 10 µM
Out of some 200,000 compounds screened, about 720 (0.36%) were called active. No stated cut-off is given here; in the data, active means inhibition above about 30%; inactive means the rest, inconclusive results apart. The sample as a whole holds a higher share of actives than the screen did.
Give your call using only these classes: active, inactive

[[record]]
compound = "CC(C)(C)NC(=O)c1cccc(NC(=O)Cc2ccc(Br)cc2)c1"
classification = "inactive"

[[record]]
compound = "CCCc1cc(=O)[nH]c(SCc2ccc(C#N)cc2)n1"
classification = "active"

[[record]]
compound = "O=C(COc1ccccc1Cl)Nc1ccc(C(=O)c2ccc(C(=O)O)cc2)cc1"
classification = "inactive"

[[record]]
compound = "CN(CC(=O)Nc1ccc(S(=O)(=O)N2CCCC2)cc1)Cc1ccc(Cl)c(Cl)c1"
classification = "inactive"

[[record]]
compound = "Cc1ccc(S(=O)(=O)NCc2csc(C)n2)c(C)c1"
classification = "inactive"


Data request: Status in this test for Cc1ccc(C)c(Cn2nnc3c(=O)[nH]c(C(=O)Nc4ccc(F)cc4)nc32)c1 ?
Data returned: active

----------
experiment-summary: antivirals against arbovirus infection, primary screen, cell-based, full library, 10K replicate subset (AID 1251)
test-conditions: arbovirus infection cell-based antiviral screen, at 10 µM, active compounds read high
Out of some 200,000 compounds screened, about 720 (0.36%) were called active. What follows is part of a selection rich in actives, with near analogues and random picks from the rest.
property-measured: inhibition (%)
Response body: numeric value in %, unit text excluded.

[[record]]
compound = "COc1ccc(CCn2ccc(O)c(Cc3ccc(Cl)cc3Cl)c2=O)cc1OC"
endpoint_result = 5.76

[[record]]
compound = "COc1ccc(/C=N/NC(=O)C(C)N(c2ccc(OC)cc2)S(C)(=O)=O)cc1 (stereo unspecified)"
endpoint_result = -1.77


Input CNC(=S)N1CCN(c2ccccn2)CC1 . Output inhibition: 8.2

Input O=C(CNCc1ccc(F)cc1)Nc1ccccc1-c1ccccc1 . Output inhibition: -16.4

Input CCOc1c(Cl)cc(/C=N/O)cc1OC . Output inhibition: 11

----------
experiment-summary: antivirals against arbovirus infection, primary screen, cell-based, full library, 10K replicate subset (AID 1251)
test-conditions: arbovirus infection cell-based antiviral screen, at 10 µM, active compounds read high
About 720 (0.36%) of roughly 200,000 compounds were called active. Shown is part of a subset that was picked to be rich in actives.
property-measured: inhibition (%)
Response body: numeric value in %, unit text excluded.

Some solved entries appear below for comparison.
[[record]]
compound = "Cc1cc(F)ccc1S(=O)(=O)Nc1ncnc2scc(-c3ccc(F)cc3)c12"
endpoint_result = 34.8

[[record]]
compound = "O=C(Nc1ccn(Cc2ccc(F)cc2)n1)c1ccncc1"
endpoint_result = 3.28

[[record]]
compound = "Cc1cc(C(=O)NNC(=O)CCC2CCCCC2)c(C)o1"
endpoint_result = -2.2

[[record]]
compound = "C/C(=N\\N=C(N)N)c1ccc(Cl)cc1"
endpoint_result = -24.2

[[record]]
compound = "Brc1ccc(C2=CC(c3ccco3)n3ncnc3N2)cc1 (centres undefined)"
endpoint_result = 12.4

[[record]]
compound = "COc1ccc2c(c1)CCC/C2=N\\OC(=O)c1ccccc1F"
endpoint_result = -1.6

[[record]]
compound = "O=C(CC1C(=O)NCCN1Cc1ccc(-c2ccccc2)cc1)NCC1CCOCC1 (centres undefined)"
endpoint_result = 1.09

[[record]]
compound = "CCc1ccc(/C=C2\\SC(N3CCOCC3)=NC2=O)cc1"
endpoint_result = -6.68


Input Cc1ccc(CNC(=O)Cn2c(=O)c3sccc3n(Cc3cccc([N+](=O)[O-])c3)c2=O)cc1 . Output inhibition: -23.2

Input Cc1ccc(CN2CCN(Cc3ccc4ncccc4c3)CC2CCO)cc1 (centres undefined) . Output inhibition: 4.14

Input O=c1c2c(ncn1Cc1ccccc1)nc1n2CCC1 . Output inhibition: -1.22

Input CCCCCOc1ccc(CSC2=NCCN2)cc1[N+](=O)[O-] . Output inhibition: -7.5

Input Cc1cc(C)n2nc(C(=O)N(C)C(c3ccccc3)c3ccccc3)nc2n1 . Output inhibition: 24.9

Input O=C(Nc1ccn(Cc2ccccc2)n1)c1cccc(F)c1 . Output inhibition: -18.6

Input Cc1ccc(N2CCN(C3=NC(=O)/C(=C\c4cccs4)S3)CC2)cc1 . Output inhibition: 6.43

Input COc1cccc(Nc2nnc(SCC(=O)N3CC(C)OC(C)C3)s2)c1 (centres undefined) . Output inhibition: 2.66

Input CC(=O)Nc1ccc(SCC(=O)Nc2ccccc2Oc2ccccc2)cc1 . Output inhibition: -11.3

Input C=CCN1C(=O)C(O)(CC(=O)c2ccccn2)c2ccccc21 (centres undefined) . Output inhibition: -2.77

Input CCn1c(CSCc2c(Cl)cccc2Cl)n[nH]c1=S . Output inhibition: 10.9

Ref: PubChem BioAssay AID1251
